# Flash Point per entry
- experiment_description: Flash point of the additive
- Format: physicochemical
- assay_conditions: neat additive
quantity_name: Flash Point

> print(dat)
                                   compound  endpoint.result
1  CCCCCCCC/C=C\CCCCCCCC1=NCCN1CCN [Inventive Ex. 2]          >200 C.
2  CCCCCCCC/C=C\CCCCCCCC(=O)NCCCN(C)C [Inventive Ex. 6]           113 C.
3  CCCCCCCC/C=C\CCCCCCCC(=O)NCCNCCN [Inventive Ex. 1]          >200 C.
4  CCCCCCCC/C=C\CCCCCCCC(=O)NCCNCCNC(=O)CCCCCCC/C=C\CCCCCCCC [Inventive Ex. 3]          >200 C.

* * *

- experiment_description: Pour point of the additive
- Type: physicochemical
- Set-up: unit not given here
- assay_conditions: neat additive
quantity_name: Pour Point

> print(dat)
                                   molecule  quantity.name  endpoint.result
1  CCCCCCCC/C=C\CCCCCCCC(=O)NCCNCCNC(=O)CCCCCCC/C=C\CCCCCCCC [Inventive Ex. 3]     Pour Point               78
2  CCCCCCCC/C=C\CCCCCCCC1=NCCN1CCN [Inventive Ex. 2]     Pour Point              −27
3  CCCCCCCC/C=C\CCCCCCCC(=O)NCCCN(C)C [Inventive Ex. 6]     Pour Point                0
4  CCCCCCCC/C=C\CCCCCCCC(=O)NCCNCCN [Inventive Ex. 1]     Pour Point               36

Where do the numbers come from? From patent US20250109275A1.
